Value source: patent US7951530B2

Reported Relative activity (%) values for a set of compounds
Test system: CMM-forming enzyme
measurement.notes: Effects of metal ions on the enzyme activity
Assay type: biochemical, Arthrobacter globiformis M6
cond: CMM-forming enzyme activity in the presence of 1 mM metal salt; None = 100

{"structure.as.smiles": "[Cl][Al]([Cl])[Cl]", "Relative activity (%)": "13%"}
{"structure.as.smiles": "[Cl-].[Cl-].[Sr+2]", "Relative activity (%)": "90%"}
{"structure.as.smiles": "[Cl][Fe][Cl]", "Relative activity (%)": "95%"}
{"structure.as.smiles": "[Ba+2].[Cl-].[Cl-]", "Relative activity (%)": "90%"}
{"structure.as.smiles": "[Cl][Mn][Cl]", "Relative activity (%)": "97%"}
{"structure.as.smiles": "[Cl][Fe]([Cl])[Cl]", "Relative activity (%)": "32%"}
{"structure.as.smiles": "[Cl][Hg][Cl]", "Relative activity (%)": "2%"}
